Target: HLA-A*30:01
Assay: IEDB peptide-MHC binding, purified MHC/competitive/radioactivity; filed as Kd, often an IC50 or EC50 that approximates it; bounds were set here for any values at or beyond the usual limits of such assays
Settings: source organism: Lymphocytic choriomeningitis virus (strain Armstrong)
MEASURE: Kd

>>> value_observed("KLSHSDYEY")
"≥ 24.2 µM"

====

Target: HLA-B*40:01
Assay: IEDB peptide-MHC binding, purified MHC/competitive/radioactivity; filed as Kd, often an IC50 or EC50 that approximates it; bounds were set here for any values at or beyond the usual limits of such assays
Settings: source organism: SARS coronavirus Tor2
MEASURE: Kd

>>> value_observed("NEYTGNYQCG")
"≥ 69600 nM"
>>> value_observed("RELYLNSSNV")
"184 nM"
>>> value_observed("MEKLKALVA")
"152 nM"
>>> value_observed("GEILLLEWLA")
"20.3 nM"
>>> value_observed("TEVMPVSMA")
"15400 nM"

====

Biological target: HLA-A*24:02
Test: IEDB peptide-MHC binding, purified MHC/direct/fluorescence; filed as Kd, often an IC50 or EC50 that approximates it; bounds were set here for any values at or beyond the usual limits of such assays
Settings: source organism: Vibrio vulnificus YJ016
MEASURE: Kd (µM)

>>> value_observed("WHQARFEEL")
8.8

====

Examples of sequences with documented Kd follow.
Target: HLA-B*07:02
Experiment: IEDB peptide-MHC binding, purified MHC/direct/fluorescence; filed as Kd, often an IC50 or EC50 that approximates it; bounds were set here for any values at or beyond the usual limits of such assays
Conditions: source organism: Salmonella enterica
MEASURE: Kd

>>> value_observed("RKAGVNQAK")
"≥ 20 µM"
>>> value_observed("MGKTITDVK")
"≥ 20 µM"

====

Biological target: HLA-B*15:01
Assay: IEDB peptide-MHC binding, purified MHC/direct/fluorescence; filed as Kd, often an IC50 or EC50 that approximates it; bounds were set here for any values at or beyond the usual limits of such assays
Conditions: source organism: Mycobacterium avium 104
MEASURE: Kd

>>> value_observed("VRDVVMPAL")
"≥ 20 µM"

====

Biological target: HLA-B*58:01
Experiment: IEDB peptide-MHC binding, purified MHC/direct/fluorescence; filed as Kd, often an IC50 or EC50 that approximates it; bounds were set here for any values at or beyond the usual limits of such assays
Settings: source organism: Influenza A virus (A/Viet Nam/HN/2004(H5N1))
MEASURE: Kd

>>> value_observed("VHFRNQVKI")
"≥ 20 µM"

====

Biological target: HLA-B*07:02
Assay: IEDB peptide-MHC binding, purified MHC/direct/fluorescence; filed as Kd, often an IC50 or EC50 that approximates it; bounds were set here for any values at or beyond the usual limits of such assays
Conditions: source organism: Giardia lamblia ATCC 50803
MEASURE: Kd

>>> value_observed("KLRSNALSL")
"0.008 µM"
>>> value_observed("DEKPKVMEG")
"≥ 20 µM"
>>> value_observed("RTDPVIDNI")
"≥ 20 µM"
>>> value_observed("YLDMVLAFL")
"≥ 20 µM"
>>> value_observed("KVGVYKMHK")
"≥ 20 µM"

====

Biological target: HLA-B*15:01
Assay: IEDB peptide-MHC binding, purified MHC/direct/fluorescence; filed as Kd, often an IC50 or EC50 that approximates it; bounds were set here for any values at or beyond the usual limits of such assays
Conditions: source organism: Vibrio vulnificus
pKd: −log10 of the molar value.
MEASURE: pKd

>>> value_observed("PHPVVVRTL")
6.11
